test system: M14 melanoma; test: NCI-60 one-dose screen, 48 h (100 = growth as untreated, 0 = no growth, -100 = all killed); settings: 10 µM unless noted
Compounds without any hit were thinned out: in the full panel of roughly 83,000, 20% have a hit.
Test Readout: growth (%)
Give bare numbers, in %.

A selection of reference data follows.
INSERT INTO assay_data (compound, test_readout, result) VALUES
  ('CCOC(=O)c1c2c(n3ccc(NC(=O)CCN4CCCCC4)cc13)C(=O)c1ncccc1C2=O', 'growth', -77.9),
  ('CCCCCCCCCCCCNC(=O)[C@H]1CSC(c2ccc(OC)c(F)c2)N1 (stereo partly drawn)', 'growth', -89.6);

Query block: Look up growth for this compound: `COc1cc2c(c(OC)c1OC)-c1ccc(N=NC(N)=S)c(=O)cc1[C@@H](NC(C)=O)CC2`
Result block: -39.1

Hello, the source for this data is PubChem BioAssay (NCI), in case you need it.
